Recorded measurements of pIC50, one per entry
molecular target: human orexin-2 receptor (Homo sapiens, UniProt O43614); construct: expressed in transfected cells; host or cells: CHO cells (grown under G418 selection); experiment: FLIPR Ca2+ flux assay, OX2R; type: cell-based; conditions: CHO cells expressing human orexin-2 receptor; agonist 70 pM Ala-6,12 orexin-A; read-out: OX2R FLIPR
Sequence (O43614 whole entry): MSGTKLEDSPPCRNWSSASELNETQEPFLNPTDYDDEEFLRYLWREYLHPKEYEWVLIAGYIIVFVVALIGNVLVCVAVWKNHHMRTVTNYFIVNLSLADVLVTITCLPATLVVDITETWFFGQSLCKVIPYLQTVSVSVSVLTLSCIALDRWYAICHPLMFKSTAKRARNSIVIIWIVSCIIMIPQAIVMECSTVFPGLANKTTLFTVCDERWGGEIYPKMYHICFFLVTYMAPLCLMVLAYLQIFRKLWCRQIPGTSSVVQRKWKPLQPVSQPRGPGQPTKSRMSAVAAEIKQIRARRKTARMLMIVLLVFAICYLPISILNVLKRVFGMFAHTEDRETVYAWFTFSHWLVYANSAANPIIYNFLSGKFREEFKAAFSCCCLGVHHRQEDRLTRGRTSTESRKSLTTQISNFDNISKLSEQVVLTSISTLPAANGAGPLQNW
pIC50: −log10 of the molar value.

[
  {
    "Chem smiles": "COc1ccnc(N2CC[C@@H](C)N(C(=O)c3ccccc3-n3nccn3)CC2)c1",
    "pIC50": 7.35
  },
  {
    "Chem smiles": "COc1ccnc(N2CC[C@@H](C)N(C(=O)c3cccnc3-n3cccn3)CC2)c1",
    "pIC50": 6.99
  },
  {
    "Chem smiles": "CC(=O)N(C)c1cccc(N2CC[C@@H](C)N(C(=O)c3ccccc3-n3nccn3)CC2)n1",
    "pIC50": 7.07
  },
  {
    "Chem smiles": "COc1ccnc(N2CC[C@@H](C)N(C(=O)c3ccccc3C3(C#N)CC3)CC2)c1",
    "pIC50": 6.79
  },
  {
    "Chem smiles": "C[C@@H]1CCN(c2nccn3ccnc23)CCN1C(=O)c1ccccc1C1CC1",
    "pIC50": 7.54
  },
  {
    "Chem smiles": "COc1ccnc(N2CC[C@@H](C)N(C(=O)c3ccccc3C3CCC3)CC2)c1",
    "pIC50": 6.91
  },
  {
    "Chem smiles": "C[C@@H]1CCN(c2nccn3ccnc23)CCN1C(=O)c1cccnc1-n1cccn1",
    "pIC50": 6.90
  },
  {
    "Chem smiles": "CCN(C(C)=O)c1cccc(N2CC[C@@H](C)N(C(=O)c3ccccc3-n3nccn3)CC2)n1",
    "pIC50": 7.17
  },
  {
    "Chem smiles": "C[C@@H]1CCN(c2cccc(N3CCN(C)C3=O)n2)CCN1C(=O)c1cccc(F)c1-n1nccn1",
    "pIC50": 7.24
  },
  {
    "Chem smiles": "C[C@@H]1CCN(c2nccn3ccnc23)CCN1C(=O)c1ccccc1-n1nccn1",
    "pIC50": 7.30
  },
  {
    "Chem smiles": "COc1ccnc(N2CC[C@@H](C)N(C(=O)c3ccsc3-n3nccn3)CC2)c1",
    "pIC50": 6.91
  },
  {
    "Chem smiles": "COc1ccnc(N2CC[C@@H](C)N(C(=O)c3ccccc3C3CC3)CC2)c1",
    "pIC50": 6.90
  },
  {
    "Chem smiles": "C[C@@H]1CCN(c2nccn3nccc23)CCN1C(=O)c1ccccc1-n1nccn1",
    "pIC50": 6.95
  },
  {
    "Chem smiles": "C[C@@H]1CCN(c2cccc(N3CCN(C)C3=O)n2)CCN1C(=O)c1cc(F)ccc1-n1nccn1",
    "pIC50": 6.71
  }
]

----------
IC50 overview
target: rat orexin-1 receptor (Rattus norvegicus, UniProt P56718); test: FLIPR Ca2+ flux assay, OX1R; conditions: CHO cells expressing rat orexin-1 receptor; agonist 70 pM Ala-6,12 orexin-A
Metric: IC50

[
  {
    "Compound": "COc1ccnc(N2CC[C@@H](C)N(C(=O)c3ccccc3C3CCC3)CC2)c1",
    "Assay system": "rat orexin-1 receptor (Rattus norvegicus, UniProt P56718)",
    "Result": "> 10 µM"
  },
  {
    "Compound": "CC(O)c1cccc(N2CC[C@@H](C)N(C(=O)c3ccccc3-n3nccn3)CC2)n1 (stereo partly shown)",
    "Assay system": "rat orexin-1 receptor (Rattus norvegicus, UniProt P56718)",
    "Result": "2.55 µM"
  },
  {
    "Compound": "CCC(=O)N(C)c1cccc(N2CC[C@@H](C)N(C(=O)c3ccccc3-n3nccn3)CC2)n1",
    "Assay system": "rat orexin-1 receptor (Rattus norvegicus, UniProt P56718)",
    "Result": "> 10 µM"
  },
  {
    "Compound": "C[C@@H]1CCN(c2nccn3ccnc23)CCN1C(=O)c1ccccc1C1(C#N)CC1",
    "Assay system": "rat orexin-1 receptor (Rattus norvegicus, UniProt P56718)",
    "Result": "> 10 µM"
  }
]

----------
Biological target: rat orexin-1 receptor (Rattus norvegicus)
Sequence (P56718 1-416): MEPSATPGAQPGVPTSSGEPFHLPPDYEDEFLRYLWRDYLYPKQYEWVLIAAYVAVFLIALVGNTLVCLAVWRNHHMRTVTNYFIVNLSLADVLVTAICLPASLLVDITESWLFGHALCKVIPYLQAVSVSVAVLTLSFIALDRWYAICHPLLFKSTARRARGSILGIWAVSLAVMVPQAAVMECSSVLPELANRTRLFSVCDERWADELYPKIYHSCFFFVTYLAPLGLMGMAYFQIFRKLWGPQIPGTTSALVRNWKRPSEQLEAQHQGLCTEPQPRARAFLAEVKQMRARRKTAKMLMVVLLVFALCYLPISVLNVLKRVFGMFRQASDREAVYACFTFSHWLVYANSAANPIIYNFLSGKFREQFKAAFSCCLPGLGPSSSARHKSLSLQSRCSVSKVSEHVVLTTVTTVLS
Assay: FLIPR Ca2+ flux assay, OX1R
Conditions: CHO cells expressing rat orexin-1 receptor; agonist 70 pM Ala-6,12 orexin-A
pIC50: −log10 of the molar value.
Overview of reported pIC50 across a group of compounds:
Metric: pIC50

[
  {
    "Compound": "COc1ccnc(N2CC[C@@H](C)N(C(=O)c3ccsc3-n3nccn3)CC2)c1 [Example 3]",
    "Metric": "pIC50",
    "Result": "< 5.00"
  },
  {
    "Compound": "CC(C)C(=O)N(C)c1cccc(N2CC[C@@H](C)N(C(=O)c3ccccc3-n3nccn3)CC2)n1 [Example 17]",
    "Metric": "pIC50",
    "Result": "< 5.00"
  },
  {
    "Compound": "COc1ccnc(N2CC[C@@H](C)N(C(=O)c3cccnc3OCC(F)F)CC2)c1 [Example 6]",
    "Metric": "pIC50",
    "Result": "< 5.00"
  },
  {
    "Compound": "COc1ccnc(N2CC[C@@H](C)N(C(=O)c3ccccc3C3CC3)CC2)c1 [Example 9]",
    "Metric": "pIC50",
    "Result": "< 5.00"
  },
  {
    "Compound": "COc1ccnc(N2CC[C@@H](C)N(C(=O)c3ccccc3-n3nccn3)CC2)c1 [Example 2]",
    "Metric": "pIC50",
    "Result": 5.59
  },
  {
    "Compound": "C[C@@H]1CCN(c2cccc(N3CCN(C)C3=O)n2)CCN1C(=O)c1cc(F)ccc1-n1nccn1 [Example 16]",
    "Metric": "pIC50",
    "Result": "< 5.00"
  },
  {
    "Compound": "C[C@@H]1CCN(c2cccc(C(C)(C)O)n2)CCN1C(=O)c1ccccc1-n1nccn1 [Example 20]",
    "Metric": "pIC50",
    "Result": 5.71
  },
  {
    "Compound": "C[C@@H]1CCN(c2nccn3ccnc23)CCN1C(=O)c1ccccc1C1CC1 [Example 23]",
    "Metric": "pIC50",
    "Result": "< 5.00"
  },
  {
    "Compound": "Cc1ccnc(N2CC[C@@H](C)N(C(=O)c3ccccc3-n3nccn3)CC2)c1 [Example 1]",
    "Metric": "pIC50",
    "Result": "< 5.00"
  },
  {
    "Compound": "C[C@@H]1CCN(c2nccn3ccnc23)CCN1C(=O)c1ccccc1-n1nccn1 [Example 22]",
    "Metric": "pIC50",
    "Result": "< 5.00"
  },
  {
    "Compound": "C[C@@H]1CCN(c2cccc(N3CCN(C)C3=O)n2)CCN1C(=O)c1ccccc1-n1nccn1 [Example 11]",
    "Metric": "pIC50",
    "Result": 5.32
  },
  {
    "Compound": "COc1ccnc(N2CC[C@@H](C)N(C(=O)c3cccnc3-n3cccn3)CC2)c1 [Example 5]",
    "Metric": "pIC50",
    "Result": "< 5.00"
  },
  {
    "Compound": "CCN(C(C)=O)c1cccc(N2CC[C@@H](C)N(C(=O)c3ccccc3-n3nccn3)CC2)n1 [Example 13]",
    "Metric": "pIC50",
    "Result": "< 5.00"
  },
  {
    "Compound": "C[C@@H]1CCN(c2cccc(N3CCN(C)C3=O)n2)CCN1C(=O)c1cccc(F)c1-n1nccn1 [Example 14]",
    "Metric": "pIC50",
    "Result": 5.50
  },
  {
    "Compound": "CC(=O)N(C)c1cccc(N2CC[C@@H](C)N(C(=O)c3ccccc3-n3nccn3)CC2)n1 [Example 12]",
    "Metric": "pIC50",
    "Result": "< 5.00"
  },
  {
    "Compound": "C[C@@H]1CCN(c2nccn3ccnc23)CCN1C(=O)c1cccnc1-n1cccn1 [Example 25]",
    "Metric": "pIC50",
    "Result": "< 5.00"
  },
  {
    "Compound": "C[C@@H]1CCN(c2nccn3nccc23)CCN1C(=O)c1ccccc1-n1nccn1 [Example 24]",
    "Metric": "pIC50",
    "Result": "< 5.00"
  }
]
